Hey, just so you know, these numbers are from PubChem BioAssay (NCATS).

assay: A High-Content qHTS Against Drug Library for the Identification of Small Molecules that Inhibit DYT1 Early Onset Primary Dystonia-Associated Cell Pathology (AID 1645839); conditions: HEK293 Flp-In EGFP-delE TorsinA, punctate imaging, 48 h; series mostly up to 91.7 µM
Inconclusive results are not listed. Calls of active or inactive are those of the source. Calls follow the shape of the full dose curve.
Measurement Type: outcome

| Compound | Reported Measurement |
| --- | --- |
| O=C(O)C(Cl)Cl | inactive |
| CN[C@@H](C)[C@H](O)c1ccccc1 | inactive |
| COC(=O)c1cncn1C(C)c1ccccc1 (stereo not drawn) | inactive |

* * *

target: Nucleoprotein (Lymphocytic choriomeningitis virus (strain Armstrong)) (UniProt P09992); test: qHTS for Inhibitors of the Functional Ribonucleoprotein Complex (vRNP) of Lymphocytic Choriomeningitis Arenaviruses (LCMV): LCMV Primary Screen - GLuc reporter signal (AID 1347086); conditions: LCMV minigenome vRNP cell assay, Gaussia luciferase reporter; series mostly up to 57.5 µM; also: nearly all actives have a fitted effect of over 70% in size
Sequence (P09992 whole entry, looked up): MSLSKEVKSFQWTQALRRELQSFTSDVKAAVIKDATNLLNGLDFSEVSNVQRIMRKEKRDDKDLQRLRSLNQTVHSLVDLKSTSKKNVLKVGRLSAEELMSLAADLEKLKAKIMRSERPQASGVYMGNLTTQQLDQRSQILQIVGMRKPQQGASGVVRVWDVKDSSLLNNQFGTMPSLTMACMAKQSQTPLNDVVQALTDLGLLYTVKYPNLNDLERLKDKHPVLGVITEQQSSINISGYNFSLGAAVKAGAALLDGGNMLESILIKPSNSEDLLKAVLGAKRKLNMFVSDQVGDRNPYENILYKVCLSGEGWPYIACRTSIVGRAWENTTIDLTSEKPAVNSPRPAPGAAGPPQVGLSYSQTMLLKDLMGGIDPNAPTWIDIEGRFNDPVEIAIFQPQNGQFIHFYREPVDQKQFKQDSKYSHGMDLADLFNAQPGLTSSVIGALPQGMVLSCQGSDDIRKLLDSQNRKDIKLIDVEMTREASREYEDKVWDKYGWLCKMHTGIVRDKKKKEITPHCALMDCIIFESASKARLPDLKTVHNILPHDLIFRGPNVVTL
Records with an inconclusive call do not appear. Active and inactive are the calls of the source. Calls follow the shape of the full dose curve.
Outcome codes: class 1 (active), class 0 (inactive)

| Compound | Target Entity | Class Name |
| --- | --- | --- |
| O=[N+]([O-])c1cc([N+](=O)[O-])c2ccccc2c1 | Nucleoprotein (Lymphocytic choriomeningitis virus (strain Armstrong)) (UniProt P09992) | class 0 |
| CCN(c1ccccc1)c1cc(NC)[n+](C)c(C)n1 | Nucleoprotein (Lymphocytic choriomeningitis virus (strain Armstrong)) (UniProt P09992) | class 0 |
| CCN(CC)CCCCNc1nc2cc(Cl)c(Cl)cc2nc1-c1ccc(-c2cccs2)s1 | Nucleoprotein (Lymphocytic choriomeningitis virus (strain Armstrong)) (UniProt P09992) | class 0 |
| c1ccc2occc2c1 | Nucleoprotein (Lymphocytic choriomeningitis virus (strain Armstrong)) (UniProt P09992) | class 0 |
| COc1cccc2nc(-c3cccs3)nc(NN3C(=O)C=C(C)C3=O)c12 | Nucleoprotein (Lymphocytic choriomeningitis virus (strain Armstrong)) (UniProt P09992) | class 1 |
| Cc1c(N)nc([C@H](CC(N)=O)NC[C@@H](N)C(N)=O)nc1C(=O)N[C@H](C(=O)N[C@@H](C)[C@H](O)[C@@H](C)C(=O)N[C@@H](C(=O)NCCc1nc(-c2nc(C(=O)NCCC[S+](C)C)cs2)cs1)[C@@H](C)O)C(O[C@H]1O[C@H](CO)[C@H](O)[C@@H](O)[C@@H]1O[C@H]1O[C@H](CO)[C@@H](O)[C@H](OC(N)=O)[C@H]1O)c1cnc[nH]1 (stereo partly specified) | Nucleoprotein (Lymphocytic choriomeningitis virus (strain Armstrong)) (UniProt P09992) | class 0 |
| COc1ccc(N(C(=O)Oc2c(C)cccc2C)c2ccnc(Nc3ccc(N4CCN(C)CC4)cc3)n2)c(OC)c1 | Nucleoprotein (Lymphocytic choriomeningitis virus (strain Armstrong)) (UniProt P09992) | class 0 |
| Oc1c(I)cc(I)c2cccnc12 | Nucleoprotein (Lymphocytic choriomeningitis virus (strain Armstrong)) (UniProt P09992) | class 0 |
| CO/C=C(/C(=O)OC)c1ccccc1Oc1cc(Oc2ccccc2C#N)ncn1 | Nucleoprotein (Lymphocytic choriomeningitis virus (strain Armstrong)) (UniProt P09992) | class 1 |
| O=C(C=Cc1ccc(/C=C/C(=O)Nc2ccc(C3=NCCN3)cc2)cc1)Nc1ccc(C2=NCCN2)cc1 | Nucleoprotein (Lymphocytic choriomeningitis virus (strain Armstrong)) (UniProt P09992) | class 0 |
| O=C1CCCN1CC#CCN1CCCC1 | Nucleoprotein (Lymphocytic choriomeningitis virus (strain Armstrong)) (UniProt P09992) | class 0 |
| Cc1ccc(F)c(NC(=O)Nc2ccc(-c3cccc4[nH]nc(N)c34)cc2)c1 | Nucleoprotein (Lymphocytic choriomeningitis virus (strain Armstrong)) (UniProt P09992) | class 0 |
| CN[C@@H](C)[C@H](O)c1ccccc1 | Nucleoprotein (Lymphocytic choriomeningitis virus (strain Armstrong)) (UniProt P09992) | class 0 |
| COc1ccccc1O | Nucleoprotein (Lymphocytic choriomeningitis virus (strain Armstrong)) (UniProt P09992) | class 0 |
| CCCS(=O)(=O)Nc1ccc(F)c(C(=O)c2c[nH]c3ncc(-c4ccc(Cl)cc4)cc23)c1F | Nucleoprotein (Lymphocytic choriomeningitis virus (strain Armstrong)) (UniProt P09992) | class 0 |
| O=S(=O)(N=Cc1c(O)ccc2ccccc12)c1cccs1 | Nucleoprotein (Lymphocytic choriomeningitis virus (strain Armstrong)) (UniProt P09992) | class 0 |
| O=C(Cc1ccc(Cl)c(Cl)c1)N1CCCCC1CN1CCCC1 (stereo unspecified) | Nucleoprotein (Lymphocytic choriomeningitis virus (strain Armstrong)) (UniProt P09992) | class 0 |
| CN(C)c1ccc(C2Nc3ccc4ccccc4c3C3=C2C(=O)CC(C)(C)C3)cc1Br (stereo unspecified) | Nucleoprotein (Lymphocytic choriomeningitis virus (strain Armstrong)) (UniProt P09992) | class 0 |
| O=C(O)C(Cl)Cl | Nucleoprotein (Lymphocytic choriomeningitis virus (strain Armstrong)) (UniProt P09992) | class 0 |
| O=C(Nc1cccc(Cl)c1)Nc1ncc(CCNc2ncnc3ccsc23)s1 | Nucleoprotein (Lymphocytic choriomeningitis virus (strain Armstrong)) (UniProt P09992) | class 0 |
| CCCCC(CC)COC(=O)c1ccc(N(C)C)cc1 (stereo unspecified) | Nucleoprotein (Lymphocytic choriomeningitis virus (strain Armstrong)) (UniProt P09992) | class 0 |
| CNCc1ccc(-c2[nH]c3cc(F)cc4c3c2CCNC4=O)cc1 | Nucleoprotein (Lymphocytic choriomeningitis virus (strain Armstrong)) (UniProt P09992) | class 0 |
| NC(=NCCC[C@H](N)C(=O)O)N[N+](=O)[O-] | Nucleoprotein (Lymphocytic choriomeningitis virus (strain Armstrong)) (UniProt P09992) | class 0 |
| O=S(=O)(O)C(F)(F)C(F)(F)C(F)(F)C(F)(F)C(F)(F)C(F)(F)C(F)(F)C(F)(F)F | Nucleoprotein (Lymphocytic choriomeningitis virus (strain Armstrong)) (UniProt P09992) | class 0 |
| COc1ncnc(NS(=O)(=O)c2ccc(N)cc2)c1OC | Nucleoprotein (Lymphocytic choriomeningitis virus (strain Armstrong)) (UniProt P09992) | class 0 |
| O=C(NCCCNc1nc(Nc2cccc(NC(=O)N3CCCC3)c2)ncc1I)c1cccs1 | Nucleoprotein (Lymphocytic choriomeningitis virus (strain Armstrong)) (UniProt P09992) | class 0 |
| Cc1ccc(N)cc1O | Nucleoprotein (Lymphocytic choriomeningitis virus (strain Armstrong)) (UniProt P09992) | class 0 |
| CCCCC(CC)COC(=O)/C=C/c1ccc(OC)cc1 (stereo unspecified) | Nucleoprotein (Lymphocytic choriomeningitis virus (strain Armstrong)) (UniProt P09992) | class 0 |
| COc1ccccc1[C@H](c1cccc2ccccc12)[C@@](C)(C#N)C(=O)N1CCC(c2cccc(C(F)(F)F)c2)CC1 | Nucleoprotein (Lymphocytic choriomeningitis virus (strain Armstrong)) (UniProt P09992) | class 0 |
| NC(=O)c1ccc(I)c([N+](=O)[O-])c1 | Nucleoprotein (Lymphocytic choriomeningitis virus (strain Armstrong)) (UniProt P09992) | class 0 |
| C[C@]12COC(=O)C[C@@H]1CC[C@@H]1[C@H]2CC[C@@]2(C)[C@H]1CC[C@]2(C)O | Nucleoprotein (Lymphocytic choriomeningitis virus (strain Armstrong)) (UniProt P09992) | class 0 |
| NC1CC1c1ccccc1 (stereo unspecified) | Nucleoprotein (Lymphocytic choriomeningitis virus (strain Armstrong)) (UniProt P09992) | class 0 |
| C[C@@H]1CC[C@@]2(OC1)O[C@H]1C[C@H]3[C@@H]4CC=C5C[C@@H](O[C@@H]6O[C@H](CO)[C@@H](O[C@@H]7O[C@@H](C)[C@H](O)[C@@H](O)[C@@H]7O)[C@H](O)[C@@H]6O[C@@H]6O[C@@H](C)[C@H](O)[C@@H](O)[C@@H]6O)CC[C@]5(C)[C@@H]4CC[C@]3(C)[C@@H]1[C@H]2C | Nucleoprotein (Lymphocytic choriomeningitis virus (strain Armstrong)) (UniProt P09992) | class 0 |
| CCC[C@H](NC(=O)C(C#N)=Cc1cccc(Br)n1)c1ccccc1 | Nucleoprotein (Lymphocytic choriomeningitis virus (strain Armstrong)) (UniProt P09992) | class 0 |
| O=C1C(I)=CC(=C(c2cc(I)c(O)c(I)c2)c2ccccc2C(=O)O)C=C1I | Nucleoprotein (Lymphocytic choriomeningitis virus (strain Armstrong)) (UniProt P09992) | class 0 |
| Oc1cccc(-c2nc(N3CCOCC3)c3oc4ncccc4c3n2)c1 | Nucleoprotein (Lymphocytic choriomeningitis virus (strain Armstrong)) (UniProt P09992) | class 1 |
| CC(C)(C)c1nnc(NS(=O)(=O)c2ccccc2)s1 | Nucleoprotein (Lymphocytic choriomeningitis virus (strain Armstrong)) (UniProt P09992) | class 0 |
| CN(C)C1CCN(C(=O)c2ccc(NC(=O)Nc3nc(N4CCOCC4)nc(N4CCOCC4)n3)cc2)CC1 | Nucleoprotein (Lymphocytic choriomeningitis virus (strain Armstrong)) (UniProt P09992) | class 1 |
| CC(O)=C(C#N)C(=O)Nc1ccc(C(F)(F)F)cc1 | Nucleoprotein (Lymphocytic choriomeningitis virus (strain Armstrong)) (UniProt P09992) | class 1 |
| CC(C)(C)C(O)C(Oc1ccc(Cl)cc1)n1cncn1 (stereo unspecified) | Nucleoprotein (Lymphocytic choriomeningitis virus (strain Armstrong)) (UniProt P09992) | class 0 |
| C[N+](C)(C)CC(=O)O | Nucleoprotein (Lymphocytic choriomeningitis virus (strain Armstrong)) (UniProt P09992) | class 0 |
